Where do these numbers come from? They come from ChEMBL document CHEMBL3132762.

test system: HBL-100; test: Inhibition of oestrogen, progesterone and HER2/neu receptor triple negative human HBL100 cell proliferation assessed as [3H]thymidine incorporation into DNA helix after 3 days by betaplate counting analysis; assay type: functional, cell-based
measured attribute: IC50 (nM)
Numeric answer only, unit nM assumed.

Query string: I have this compound here, Nc1c(C(=O)Nc2cccc(Cl)c2)sc2nc3c(cc12)C(=O)CCC3 , and I need its recorded IC50.
Result string: 265

* * *

tested on: MCF7; assay: Inhibition of ER-positive human MCF7 cell proliferation assessed as [3H]thymidine incorporation into DNA helix after 3 days by betaplate counting analysis; assay type: functional, cell-based
measured attribute: pIC50
// pIC50 is dimensionless: -log10 of concentration (M)

Query string: Given the entry Nc1c(C(=O)Nc2cccc(Cl)c2)sc2nc3c(cc12)C(=O)CCC3 , what pIC50 was observed with MCF7?
Result string: 6.90
